Biological target: UniProt:P32238
Sequence (P32238 whole entry): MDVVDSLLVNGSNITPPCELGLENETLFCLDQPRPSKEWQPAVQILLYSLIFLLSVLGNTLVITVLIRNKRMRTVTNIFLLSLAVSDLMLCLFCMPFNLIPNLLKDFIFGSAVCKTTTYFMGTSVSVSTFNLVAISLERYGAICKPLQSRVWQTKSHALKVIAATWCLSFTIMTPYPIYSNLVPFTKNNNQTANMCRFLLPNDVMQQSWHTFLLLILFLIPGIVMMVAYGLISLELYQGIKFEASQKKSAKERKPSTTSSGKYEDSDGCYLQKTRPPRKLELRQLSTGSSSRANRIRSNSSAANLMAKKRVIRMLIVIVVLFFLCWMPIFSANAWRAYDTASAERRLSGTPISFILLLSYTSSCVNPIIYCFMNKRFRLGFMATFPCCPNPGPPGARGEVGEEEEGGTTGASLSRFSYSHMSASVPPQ
# AC50 per record follows

>  <molecule>
C1COC(NC(C2CC2)C2CC2)=N1

>  <AC50>
> 30 µM

$$$$
>  <molecule>
CN(C/C=C/c1ccccc1)Cc1cccc2ccccc12

>  <AC50>
> 30 µM

$$$$
>  <molecule>
Cc1cccc(C)c1OCC(C)N (centres undefined)

>  <AC50>
> 30 µM

$$$$
>  <molecule>
CC(Cc1ccccc1)NCCC(c1ccccc1)c1ccccc1 (centres undefined)

>  <AC50>
> 30 µM

$$$$
>  <molecule>
CC1=CC(=O)c2ccccc2C1=O

>  <AC50>
> 10 µM

$$$$
>  <molecule>
CCCS(=O)(=O)Nc1ccc(F)c(C(=O)c2c[nH]c3ncc(-c4ccc(Cl)cc4)cc23)c1F

>  <AC50>
> 30 µM

$$$$
>  <molecule>
NC(N)=Nc1nc(CSCCC(N)=NS(N)(=O)=O)cs1

>  <AC50>
> 30 µM

$$$$
>  <molecule>
NC[C@H]1O[C@H](O[C@H]2[C@H](O)[C@@H](O[C@H]3O[C@H](CO)[C@@H](O)[C@H](N)[C@H]3O)[C@H](N)C[C@@H]2N)[C@H](O)[C@@H](O)[C@@H]1O

>  <AC50>
> 10 µM

$$$$
>  <molecule>
COc1cc(Nc2c(C#N)cnc3cc(OCCCN4CCN(C)CC4)c(OC)cc23)c(Cl)cc1Cl

>  <AC50>
> 30 µM

$$$$
>  <molecule>
CCCCCOC(=O)Nc1nc(=O)n([C@@H]2O[C@H](C)[C@@H](O)[C@H]2O)cc1F

>  <AC50>
> 30 µM

$$$$
>  <molecule>
NS(=O)(=O)c1cc(-c2nnn[nH]2)c(NCc2cccs2)cc1Cl [AZOSEMIDE]

>  <AC50>
> 30 µM

$$$$
>  <molecule>
C#C[C@]1(O)CC[C@H]2[C@@H]3CCc4cc(O)ccc4[C@H]3CC[C@@]21C

>  <AC50>
> 30 µM

$$$$
>  <molecule>
C#CCN[C@@H]1CCc2ccccc21

>  <AC50>
> 30 µM

$$$$
>  <molecule>
CCCCN1CCCCC1C(=O)Nc1c(C)cccc1C (centres undefined)

>  <AC50>
> 30 µM

$$$$
>  <molecule>
Oc1ncnc2[nH]ncc12

>  <AC50>
> 30 µM

$$$$
>  <molecule>
CN1C(=O)CC(=O)N(c2ccccc2)c2cc(Cl)ccc21

>  <AC50>
> 10 µM

$$$$
>  <molecule>
C#CC1(OC(N)=O)CCCCC1 [ETHINAMATE]

>  <AC50>
> 10 µM

$$$$
>  <molecule>
CC(N)Cc1ccccc1 (centres undefined)

>  <AC50>
> 30 µM

$$$$
>  <molecule>
CC(C)C(=O)OCC(=O)[C@@]12O[C@H](C3CCCCC3)O[C@@H]1C[C@H]1[C@@H]3CCC4=CC(=O)C=C[C@]4(C)[C@H]3[C@@H](O)C[C@@]12C [CICLESONIDE]

>  <AC50>
> 10 µM

$$$$

FYI, the data here is from ChEMBL document CHEMBL5291721.
